Recorded values, source BindingDB's records for doi:10.1021/jm1011319.

target: Signal transducer and activator of transcription 3 (Homo sapiens); test: Inhibition of Stat3 phosphorylation in human HEL cells after 1 hr by Western blotting
Sequence (P40763 whole entry): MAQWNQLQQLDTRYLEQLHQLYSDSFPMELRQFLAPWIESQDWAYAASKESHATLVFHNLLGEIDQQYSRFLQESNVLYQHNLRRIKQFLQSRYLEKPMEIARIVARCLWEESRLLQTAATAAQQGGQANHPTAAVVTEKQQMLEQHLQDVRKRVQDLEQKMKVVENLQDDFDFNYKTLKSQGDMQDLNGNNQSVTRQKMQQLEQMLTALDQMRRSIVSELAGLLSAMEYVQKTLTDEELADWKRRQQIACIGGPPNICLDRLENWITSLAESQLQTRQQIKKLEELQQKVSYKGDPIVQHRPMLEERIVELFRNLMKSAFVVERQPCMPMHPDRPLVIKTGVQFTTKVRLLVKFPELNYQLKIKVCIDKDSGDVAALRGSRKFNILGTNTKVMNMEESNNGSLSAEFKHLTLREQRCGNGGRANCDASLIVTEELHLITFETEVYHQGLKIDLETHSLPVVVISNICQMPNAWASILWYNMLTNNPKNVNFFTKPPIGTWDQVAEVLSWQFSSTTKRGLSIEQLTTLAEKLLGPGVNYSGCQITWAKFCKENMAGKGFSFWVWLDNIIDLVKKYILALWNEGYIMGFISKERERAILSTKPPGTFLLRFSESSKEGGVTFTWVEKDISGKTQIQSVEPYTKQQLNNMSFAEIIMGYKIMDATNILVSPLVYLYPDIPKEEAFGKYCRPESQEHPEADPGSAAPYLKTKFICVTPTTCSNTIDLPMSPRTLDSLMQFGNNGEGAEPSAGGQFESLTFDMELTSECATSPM
Assay Readout: pIC50
// scale note: pIC50 = -log10(conc_M); give the bare number

Q: Lab note: need pIC50 for Cc1cc(Nc2nc(N[C@@H](C)c3ncc(F)cn3)ncc2Cl)[nH]n1 on Signal transducer and activator of transcription 3 (Homo sapiens), anyone have it?
Ans: 7.10
